FYI, the data here is from patent US20180273538A1.

target: His-TEV-DYRK1A Kinase domain (aa127-485) (Homo sapiens, UniProt Q13627); construct: His-TEV-DYRK1A Kinase domain (aa127-485); His (N); TEV cleavage site (N); experiment: Kinase ADP assay (ADP Hunter Plus); type: biochemical
metric.name: IC50 (µM)

Cc1nc(N[C@H](C)c2ccccc2)c2c(-c3ccnc(N)c3)c[nH]c2n1
0.059
Cc1nc(NCC2COc3ccccc32)c2c(-c3ccnc(N)c3)c[nH]c2n1 (stereo not shown)
0.234

P = Cc1nc(NC2CCCCC2)c2c(-c3ccnc(N)c3)c[nH]c2n1
Q = COc1cc(F)ccc1CNc1nc(C)nc2[nH]cc(-c3ccnc(N)c3)c12
R = Cc1nc(NC2Cc3ccccc3C2)c2c(-c3ccnc(N)c3)c[nH]c2n1
Challenge: Arrange the 3 compounds by rising IC50, starting with the smallest. Use the labels to give the requested order.
Response given: Q, R, P

a = Cc1nc(N(C)Cc2c(F)cccc2F)c2c(-c3ccnc(N)c3)c[nH]c2n1
b = Cc1nc(N2CCC3(CCCCC3)CC2)c2c(-c3ccnc(N)c3)c[nH]c2n1
Challenge: For the pair a and b , which entry has the numerically smaller recorded IC50? Bench note: the answer is the label of the chosen record.
Response given: b
